As shown below, each of these compounds has a reported inhibition of growth at 3 µM value.
# System: K562
# Assay name: Growth inhibition in doxorubicin-resistant human K562 cells overexpressing Pgp at 3 uM after 72 hrs by MTT assay
# Format: functional
# Condition label: K562, 72 h, read-out: GI

| Compound | inhibition of growth at 3 µM |
| --- | --- |
| COc1ccc(/C=C/C(=O)OCCCCCN(C)CCCCCOC(=O)c2c3ccccc3cc3ccccc23)cc1OC | ≤ 10% |
| COc1cc(/C=C/C(=O)OCCCN(C)CCCOC(=O)C=C(c2ccccc2)c2ccccc2)cc(OC)c1OC | 20% |
| COc1cc(/C=C/C(=O)OCCCN(C)CCCOC(=O)/C=C/c2ccc(-c3ccccc3)cc2)cc(OC)c1OC | ≤ 10% |
| COc1ccc(C(C(=O)OCCCN(C)CCCOC(=O)/C=C/c2cc(OC)c(OC)c(OC)c2)c2ccc(OC)cc2)cc1 | ≤ 10% |
| COc1ccc(CCN(C)CCCC(C#N)(c2ccc(OC)c(OC)c2)C(C)C)cc1OC (stereo unspecified) | ≤ 10% |
| COc1cc(/C=C/C(=O)OCCCN(C)CCCOC(=O)C(c2ccccc2)c2ccccc2)cc(OC)c1OC | ≤ 10% |

###

# Target: ATP-dependent translocase ABCB1 (Homo sapiens)
# Assay name: Inhibition of P-glycoprotein-mediated multidrug resistance in human doxorubicin-resistant K562 cells assessed as maximal increase in nuclear concentration of pirarubicin by spectrofluorimetry relative to sensitive K562 cells
# Assay type: cell-based
Threshold 0.6. fold change (FC) below it: Y. fold change (FC) at it or above: N.

| Compound | Target | Classification |
| --- | --- | --- |
| COc1cc(/C=C/C(=O)OCCCN(C)CCCOC(=O)c2ccc(-c3ccccc3)cc2)cc(OC)c1OC | ATP-dependent translocase ABCB1 (Homo sapiens) | N |
| COc1ccc(C(C#N)(CCCNCc2c3ccccc3cc3ccccc23)C(C)C)cc1OC (stereo not drawn) | ATP-dependent translocase ABCB1 (Homo sapiens) | N |
| COc1cc(/C=C/C(=O)OCCCN(C)CCCOC(=O)C(c2ccccc2)c2ccccc2)cc(OC)c1OC | ATP-dependent translocase ABCB1 (Homo sapiens) | N |
| COc1cc(/C=C/C(=O)OCCCN(C)CCCOC(=O)CCN2C(=O)C3C4c5ccccc5C(c5ccccc54)C3C2=O)cc(OC)c1OC (stereo not drawn) | ATP-dependent translocase ABCB1 (Homo sapiens) | N |
| COc1cc(/C=C/C(=O)OCCCN(C)CCCOC(=O)CN2C(=O)C3C4c5ccccc5C(c5ccccc54)C3C2=O)cc(OC)c1OC (stereo not drawn) | ATP-dependent translocase ABCB1 (Homo sapiens) | N |
| COc1ccc(/C=C/C(=O)OCCCN(C)CCCOC(=O)c2c3ccccc3cc3ccccc23)cc1OC | ATP-dependent translocase ABCB1 (Homo sapiens) | Y |
| COc1cc(/C=C/C(=O)OCCCCCN(C)CCCCCOC(=O)C=C(c2ccccc2)c2ccccc2)cc(OC)c1OC | ATP-dependent translocase ABCB1 (Homo sapiens) | Y |
| COc1ccc(/C=C/C(=O)OCCCN(C)CCCOC(=O)c2cc(OC)c(OC)c(OC)c2)cc1OC | ATP-dependent translocase ABCB1 (Homo sapiens) | Y |

###

# Target: ATP-dependent translocase ABCB1 (Homo sapiens, UniProt P08183)
# Sequence (P08183 whole entry): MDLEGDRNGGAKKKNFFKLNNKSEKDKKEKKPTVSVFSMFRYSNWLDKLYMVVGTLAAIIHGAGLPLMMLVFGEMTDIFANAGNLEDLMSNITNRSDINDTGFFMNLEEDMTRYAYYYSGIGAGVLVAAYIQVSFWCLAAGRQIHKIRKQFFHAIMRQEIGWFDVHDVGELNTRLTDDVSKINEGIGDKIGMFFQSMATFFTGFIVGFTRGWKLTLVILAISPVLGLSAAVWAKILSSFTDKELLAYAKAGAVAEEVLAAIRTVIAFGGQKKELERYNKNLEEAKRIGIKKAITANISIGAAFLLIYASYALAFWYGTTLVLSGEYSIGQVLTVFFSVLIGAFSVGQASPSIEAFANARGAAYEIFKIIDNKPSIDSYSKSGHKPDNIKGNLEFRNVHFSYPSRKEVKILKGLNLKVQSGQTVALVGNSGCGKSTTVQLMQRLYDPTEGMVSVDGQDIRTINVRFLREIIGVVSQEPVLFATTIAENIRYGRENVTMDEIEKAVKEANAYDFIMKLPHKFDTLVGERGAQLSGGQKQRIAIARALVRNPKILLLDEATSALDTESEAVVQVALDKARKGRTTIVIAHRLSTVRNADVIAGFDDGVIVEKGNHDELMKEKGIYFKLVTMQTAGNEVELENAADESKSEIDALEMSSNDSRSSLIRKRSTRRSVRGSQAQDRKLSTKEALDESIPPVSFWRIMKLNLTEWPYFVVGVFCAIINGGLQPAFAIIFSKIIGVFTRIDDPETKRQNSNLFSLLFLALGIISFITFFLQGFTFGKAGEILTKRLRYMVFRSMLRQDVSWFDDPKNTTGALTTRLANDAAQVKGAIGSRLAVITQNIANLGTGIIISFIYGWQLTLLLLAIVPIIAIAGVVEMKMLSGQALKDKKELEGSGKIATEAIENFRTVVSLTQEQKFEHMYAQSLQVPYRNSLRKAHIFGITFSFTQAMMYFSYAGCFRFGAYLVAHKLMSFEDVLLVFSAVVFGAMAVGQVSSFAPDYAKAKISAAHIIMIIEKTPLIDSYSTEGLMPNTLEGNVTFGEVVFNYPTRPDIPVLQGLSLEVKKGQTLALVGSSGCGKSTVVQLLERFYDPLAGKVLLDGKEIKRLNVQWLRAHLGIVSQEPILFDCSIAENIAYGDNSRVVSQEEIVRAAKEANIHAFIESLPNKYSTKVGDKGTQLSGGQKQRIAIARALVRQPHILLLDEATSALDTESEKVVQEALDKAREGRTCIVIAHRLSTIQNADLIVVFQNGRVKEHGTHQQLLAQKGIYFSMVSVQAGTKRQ
# Assay name: Inhibition of P-glycoprotein-mediated multidrug resistance in human doxorubicin-resistant K562 cells assessed as drug level causing 20% increase in nuclear concentration of pirarubicin by spectrofluorimetry
# Type: cell-based
Measured property: INH (µM)

| Smiles record | Recorded measurement |
| --- | --- |
| COc1ccc(/C=C/C(=O)OCCCN(C)CCCOC(=O)/C=C/c2cc(OC)c(OC)c(OC)c2)cc1OC | 1.4 |
| COc1ccc(/C=C/C(=O)OCCCN(C)CCCOC(=O)c2cc(OC)c(OC)c(OC)c2)cc1OC | 0.7 |
| COc1cc(/C=C/C(=O)OCCCCCN(C)CCCCCOC(=O)/C=C/c2ccc(-c3ccccc3)cc2)cc(OC)c1OC | 0.36 |
| COc1cc(/C=C/C(=O)OCCCCCN(C)CCCCCOC(=O)C=C(c2ccccc2)c2ccccc2)cc(OC)c1OC | 0.5 |
